Data credit: PubChem BioAssay (NCI)

Each entry below lists one item and its recorded TGI value.
# Test system: MALME-3M melanoma
# test.name: NCI tumour cell line growth inhibition, 48 h

The cases that follow already have their TGI on record.
molecule=N#C/C(N)=C(\C#N)N=Cc1csc2ccccc12 measurement="> 100 µM"
molecule="O=C(O)C(O)C(O)C(O)C(=O)CO (stereo not drawn)" measurement="> 100 µM"

Fill in the blank: the reported TGI of O[C@H]1[C@H]2[C@H](O)C[C@H](CCOCc3ccccc3)CN2C[C@H]1O is ____. > 100 µM

###

# System: LOX IMVI melanoma
# test.name: NCI tumour cell line growth inhibition, 48 h
Each entry below lists one item and its recorded TGI value.

The cases that follow already have their TGI on record.
compound=Cc1cc(=O)[nH]c(/N=C(\N)Nc2ccc(Cl)cc2)n1 measurement="> 100 µM"
compound=COc1ccc(Cl)cc1NC(=O)c1cccc([N+](=O)[O-])c1O measurement="> 84.2 µM"
compound=Nc1ccc(-c2nc3cc(F)ccc3s2)cc1CO measurement="> 100 µM"
compound="COc1ccc(C(=O)C(C(=O)C(=O)Nc2nccs2)c2ccc(OC)cc2)cc1 (centres undefined)" measurement="> 100 µM"
compound="CC1CCP(=O)(c2ccccc2)CC1 (centres undefined)" measurement="> 100 µM"
compound=CCCC(=O)Oc1ccc2c(C)cc(=O)oc2c1OC(=O)CCC measurement="> 100 µM"
compound="C[N+](C)(C)CC(=O)N/N=C(/CC1OC(=O)c2ccccc21)c1ccccc1O (centres undefined)" measurement="43.2 µM"
compound=CC(/C=N\NC(=S)N(C)C)=N/NC(=S)N(C)C measurement="> 100 µM"

Fill in the blank: the reported TGI of Cc1cc(C)c2c(SCc3ccc(Cl)cc3Cl)nc(N)nc2n1 is ____. > 100 µM

###

Each entry below lists one item and its recorded TGI value.
# System: UACC-62 melanoma
# test.name: NCI tumour cell line growth inhibition, 48 h

compound=COc1cc2c(cc1OCCCCCCCCN1C(=O)c3cccc4cccc(c34)C1=O)N=C[C@@H]1CCCN1C2=O measurement="28.4 µM"
compound=CC(C)(CC#N)c1cc(CC(C)(C)c2cc(CC(C)(C)c3cc(C(C)(C)C4(C)OCCO4)no3)no2)no1 measurement="> 100 µM"
compound=O[C@H]1[C@H]2[C@H](O)C[C@H](CCOCc3ccccc3)CN2C[C@H]1O measurement="> 100 µM"
compound=C[C@H](CCC(=O)O)[C@H]1CC[C@H]2[C@@H]3[C@H](O)C[C@@H]4C[C@H](O)CC[C@]4(C)[C@H]3CC[C@]12C measurement="> 100 µM"
compound=Cn1c2ccccc2n2c3ccccc3c(=O)c(C#N)c12 measurement="> 58.3 µM"
compound=O=C(Nc1cccc(O)c1)c1cccc(NC2=C(Cl)C(=O)N(Cc3ccccc3)C2=O)c1 measurement="28.1 µM"

Fill in the blank: the reported TGI of CC(C)C1OC(=O)/C=C/C=C/C=C/C=C/C=C/CC(O)C(C)C(O)CC(O)CC(O)CC(O)CC(O)CC(O)CC(O)/C=C/C1C (stereo not given) is ____. > 100 µM

What do you have for CCCCN(CCCC)C(=O)C(=O)C(C)C(=O)CC (stereo not given) ? > 100 µM

What do you have for O=C1/C(=C/c2ccccc2)CCc2ccccc21 ? 36.7 µM

What do you have for Cc1nc2c(n1CCN(C)C)C(=O)c1ccccc1C2=O ? 25.8 µM

What do you have for COc1ccc(CCNC(=O)CCc2ccccc2CO)cc1OC ? > 100 µM

What do you have for Nc1nc(NCC2(CO)CCC2)cc(=O)[nH]1 ? > 100 µM

What do you have for CCCCCC(O)(CCCCC)CCCCCCCCC1=C(O)c2[nH]c(=O)ccc2C(=O)C1=O ? 10.9 µM

What do you have for CC1C=C[C@H](Sc2ccccc2)CC[C@@]1(C)O (stereo not given in full) ? > 100 µM

What do you have for O=C(Nc1ccccc1O)c1ccc(CNC(=O)c2sccc2Nc2ccnc(C(F)(F)F)c2)cc1 ? 20 µM
